# measurementTarget: T1, recombinant human CTLA4-his protein (Acro biosystems, Cat#CT4-H5229) (human, UniProt P16410 37-162)
# T1 construct: bought recombinant protein; not shown: his tag
# T1 sequence (looked up): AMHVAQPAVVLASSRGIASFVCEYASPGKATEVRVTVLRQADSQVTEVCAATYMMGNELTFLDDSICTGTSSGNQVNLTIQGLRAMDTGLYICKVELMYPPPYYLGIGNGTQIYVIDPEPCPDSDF
# protocol: SPR, Biacore; antibody captured on anti-human IgG CM5 chip, CTLA4-his as analyte

| binder | Kd (nM) |
| --- | --- |
| chimeric C1D1 anti-CTLA4 antibody (antibody, human IgG4 S228P, kappa, V domains shown, mouse variable domains on human IgG4/kappa, made in 293F cells) VH: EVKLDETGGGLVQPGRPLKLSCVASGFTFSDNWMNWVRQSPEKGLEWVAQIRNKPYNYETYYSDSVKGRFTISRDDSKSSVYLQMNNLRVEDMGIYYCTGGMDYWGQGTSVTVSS VL: DIQMTQSPASLSASVGETVTITCGASEIIYGALNWYQQKQGKSPQLLIYGATNLADGMSSRFSGSGSGRQYSLKISSLHPDDAATYYCQKILSPPPWTFGGGTKLEIKR | 0.629 |
| chimeric D1D5 anti-CTLA4 antibody (antibody, human IgG4 S228P, kappa, V domains shown, mouse variable domains on human IgG4/kappa, made in 293F cells) VH: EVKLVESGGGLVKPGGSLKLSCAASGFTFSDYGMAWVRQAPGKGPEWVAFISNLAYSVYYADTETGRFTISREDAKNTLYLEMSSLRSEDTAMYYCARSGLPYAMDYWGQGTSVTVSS VL: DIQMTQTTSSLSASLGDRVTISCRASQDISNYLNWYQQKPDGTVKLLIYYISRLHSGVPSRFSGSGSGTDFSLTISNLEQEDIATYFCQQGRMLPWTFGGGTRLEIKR | 1.93 |
| huC1D1-V8 (antibody, human IgG4 S228P, kappa, V domains shown, humanized IgG4/kappa; cell supernatant on Octet, purified antibody in Biacore, ELISA, FACS and the functional assay; also called hu CTLA4 C1D1-V8) VH: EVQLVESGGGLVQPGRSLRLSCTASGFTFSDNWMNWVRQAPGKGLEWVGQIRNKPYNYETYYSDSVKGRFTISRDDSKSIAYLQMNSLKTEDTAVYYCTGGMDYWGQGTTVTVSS VL: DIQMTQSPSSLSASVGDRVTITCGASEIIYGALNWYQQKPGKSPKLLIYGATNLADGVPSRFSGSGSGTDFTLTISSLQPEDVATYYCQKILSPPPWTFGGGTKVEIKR | 12 |
| huD1D5-V9 (antibody, human IgG4 S228P, kappa, V domains shown, humanized IgG4/kappa; cell supernatant on Octet, purified antibody in Biacore, ELISA, FACS and the functional assay; also called hu CTLA4 D1D5-V9; huDID5-V9) VH: EVQLVESGGGLVKPGGSLRLSCAASGFTFSDYGMAWVRQAPGKGPEWVAFISNLAYSVYYADTETGRFTISRDDAKNSLYLQMNSLRAEDTAVYYCARSGLPYAMDYWGQGTTVTVSS VL: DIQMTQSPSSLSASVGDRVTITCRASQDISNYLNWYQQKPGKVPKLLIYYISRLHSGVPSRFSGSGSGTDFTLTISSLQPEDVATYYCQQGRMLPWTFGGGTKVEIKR | 3.02 |

Each recorded value in this set is attributed to patent US20230212304A1.
